Biological target: androgen receptor (Homo sapiens)
Sequence (P10275 1-920 Q868H): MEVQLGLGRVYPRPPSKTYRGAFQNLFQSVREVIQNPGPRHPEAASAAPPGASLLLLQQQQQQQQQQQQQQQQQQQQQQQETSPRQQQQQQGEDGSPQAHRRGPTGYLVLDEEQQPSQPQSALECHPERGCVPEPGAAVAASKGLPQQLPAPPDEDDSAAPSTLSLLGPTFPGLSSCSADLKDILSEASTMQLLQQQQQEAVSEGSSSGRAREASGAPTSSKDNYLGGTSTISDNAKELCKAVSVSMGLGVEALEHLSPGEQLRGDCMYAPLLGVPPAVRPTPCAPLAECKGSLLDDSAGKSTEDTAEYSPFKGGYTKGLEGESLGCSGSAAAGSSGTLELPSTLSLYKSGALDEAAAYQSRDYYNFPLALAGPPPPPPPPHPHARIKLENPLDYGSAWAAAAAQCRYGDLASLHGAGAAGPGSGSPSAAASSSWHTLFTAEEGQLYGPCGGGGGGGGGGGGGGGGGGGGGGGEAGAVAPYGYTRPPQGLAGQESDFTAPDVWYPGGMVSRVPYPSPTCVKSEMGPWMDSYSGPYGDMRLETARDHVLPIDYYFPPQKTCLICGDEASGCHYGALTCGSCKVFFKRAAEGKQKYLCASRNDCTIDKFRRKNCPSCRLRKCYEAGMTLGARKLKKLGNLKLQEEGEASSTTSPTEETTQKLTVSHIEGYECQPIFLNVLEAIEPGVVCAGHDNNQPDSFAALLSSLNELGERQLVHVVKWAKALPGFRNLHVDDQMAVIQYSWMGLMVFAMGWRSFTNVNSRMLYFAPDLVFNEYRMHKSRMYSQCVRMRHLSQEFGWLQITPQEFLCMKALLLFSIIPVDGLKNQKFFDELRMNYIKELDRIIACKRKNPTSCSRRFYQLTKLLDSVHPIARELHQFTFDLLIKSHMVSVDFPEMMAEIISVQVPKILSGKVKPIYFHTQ
Assay: AR Antagonist Cell Assay (MMTV-luciferase reporter, DHT-stimulated)
Conditions: MDA-MB453-MMTV clone 54-19 cells, inhibition of induction by 100 pM DHT, 17 hr
pIC50: −log10 of the molar value.
readout.type: pIC50

Example compounds with recorded pIC50:
{"compound": "O=c1cc(C(F)(F)F)c2cc(Cc3ccc(S(=O)(=O)N4CCC(CO)CC4)cc3)ccc2o1", "readout.type": "pIC50", "test.result": 5.60}
{"compound": "COc1ccc(N2CCN(S(=O)(=O)c3ccc(Cc4ccc5oc(=O)cc(C(F)(F)F)c5c4)cc3)CC2C)cc1 (stereo not shown)", "readout.type": "pIC50", "test.result": 5.03}

[P] CC1CN(S(=O)(=O)c2ccc(Cc3ccc4[nH]c(=O)cc(C(F)(F)F)c4c3)cc2)CC(C)O1 (stereo not shown)
[Q] O=c1cc(C(F)(F)F)c2cc(Cc3ccc(S(=O)(=O)N4CCCN(CCc5ccccc5)CC4)cc3)ccc2o1
// which entry has the larger pIC50 value, P or Q ? To answer, give the label that identifies your chosen option.
Q
(Q: 5.60, P: 5.19)

Numbers sourced from patent US7057048B2.
